# ASSAYED_TARGET: human Nav1.7 (Homo sapiens (Human))
# ASSAY_PROTOCOL: Nav 1.7 in vitro PatchXpress (PX) assay
# Assay type: cell-based
# MEASUREMENT_SETUP: in-vitro Nav 1.7 PX data
Simple rule here: IC50 less than 0.07 µM is label 1, otherwise label 0.

Some entries whose results are on file:
COc1cc(C(=O)NS(C)(=O)=O)c(F)cc1-c1cnc(O[C@H]2C[C@H](C)C2)c(Cl)c1: label 1
COc1cc(C(=O)NS(C)(=O)=O)c(F)cc1-c1cnc(Oc2ccc(F)c(Cl)c2)c(Cl)c1: label 1

Answer whether the molecule COc1cc(C(=O)NS(C)(=O)=O)c(F)cc1-c1cnc(Oc2c(Cl)ccc(C)c2F)c(Cl)c1 has IC50 strictly less than 0.07 µM
label 0

Answer whether the molecule CS(=O)(=O)NC(=O)c1cc(C2CC2)c(-c2cnc(OC3CCC3)c(Cl)c2)cc1F has IC50 strictly less than 0.07 µM
label 0

Answer whether the molecule COc1cc(C(=O)NS(C)(=O)=O)c(F)cc1-c1cnc(N[C@H]2CC23CCCC3)c(Cl)c1 has IC50 strictly less than 0.07 µM
label 0

Answer whether the molecule COc1cc(C(=O)NS(C)(=O)=O)c(F)cc1-c1cnc(NCC2CC(C)(C)C2)c(Cl)c1 has IC50 strictly less than 0.07 µM
label 0

----------
Give log10 IC50 for every item shown.
# ASSAYED_TARGET: UniProt Q15858
# ASSAY_PROTOCOL: Nav 1.7 in vitro PatchXpress (PX) assay
# Format: cell-based
# MEASUREMENT_SETUP: in-vitro Nav 1.7 PX data
# values: log10(IC50), units µM

Each of the following entries comes with a recorded value; kindly state log10 IC50 for each.
1. COc1cc(C(=O)NS(C)(=O)=O)c(F)cc1-c1cnc(OC2(C(F)(F)F)CCC2)c(Cl)c1
2. COc1cc(C(=O)NS(C)(=O)=O)c(F)cc1-c1cnc(Oc2c(F)ccc(C)c2F)c(Cl)c1
3. COc1cc(C(=O)NS(C)(=O)=O)c(F)cc1-c1cnc(Oc2cc(F)ccc2C)c(Cl)c1
4. CCc1ccc(-c2cc(F)c(C(=O)NS(C)(=O)=O)cc2C)cc1Cl
5. Cc1cc(C(=O)NS(C)(=O)=O)c(F)cc1-c1ccc(OCC(F)(F)F)cc1
6. COc1cc(C(=O)NS(C)(=O)=O)ccc1-c1cnc(Oc2ccnc(OC)c2Cl)c(Cl)c1
7. COc1cc(C(=O)NS(C)(=O)=O)ccc1-c1cc(Cl)nc(Oc2cc(Cl)cc(Cl)c2)c1
8. CCC(CC)Nc1ncc(-c2cc(F)c(C(=O)NS(C)(=O)=O)cc2OC)cc1Cl

[-1.23, -1.02, -1.02, -0.42, 0.60, -1.03, -1.04, -1.02]

----------
# ASSAYED_TARGET: human Nav 1.5 (Homo sapiens (Human), UniProt Q14524)
# Sequence (Q14524 whole entry): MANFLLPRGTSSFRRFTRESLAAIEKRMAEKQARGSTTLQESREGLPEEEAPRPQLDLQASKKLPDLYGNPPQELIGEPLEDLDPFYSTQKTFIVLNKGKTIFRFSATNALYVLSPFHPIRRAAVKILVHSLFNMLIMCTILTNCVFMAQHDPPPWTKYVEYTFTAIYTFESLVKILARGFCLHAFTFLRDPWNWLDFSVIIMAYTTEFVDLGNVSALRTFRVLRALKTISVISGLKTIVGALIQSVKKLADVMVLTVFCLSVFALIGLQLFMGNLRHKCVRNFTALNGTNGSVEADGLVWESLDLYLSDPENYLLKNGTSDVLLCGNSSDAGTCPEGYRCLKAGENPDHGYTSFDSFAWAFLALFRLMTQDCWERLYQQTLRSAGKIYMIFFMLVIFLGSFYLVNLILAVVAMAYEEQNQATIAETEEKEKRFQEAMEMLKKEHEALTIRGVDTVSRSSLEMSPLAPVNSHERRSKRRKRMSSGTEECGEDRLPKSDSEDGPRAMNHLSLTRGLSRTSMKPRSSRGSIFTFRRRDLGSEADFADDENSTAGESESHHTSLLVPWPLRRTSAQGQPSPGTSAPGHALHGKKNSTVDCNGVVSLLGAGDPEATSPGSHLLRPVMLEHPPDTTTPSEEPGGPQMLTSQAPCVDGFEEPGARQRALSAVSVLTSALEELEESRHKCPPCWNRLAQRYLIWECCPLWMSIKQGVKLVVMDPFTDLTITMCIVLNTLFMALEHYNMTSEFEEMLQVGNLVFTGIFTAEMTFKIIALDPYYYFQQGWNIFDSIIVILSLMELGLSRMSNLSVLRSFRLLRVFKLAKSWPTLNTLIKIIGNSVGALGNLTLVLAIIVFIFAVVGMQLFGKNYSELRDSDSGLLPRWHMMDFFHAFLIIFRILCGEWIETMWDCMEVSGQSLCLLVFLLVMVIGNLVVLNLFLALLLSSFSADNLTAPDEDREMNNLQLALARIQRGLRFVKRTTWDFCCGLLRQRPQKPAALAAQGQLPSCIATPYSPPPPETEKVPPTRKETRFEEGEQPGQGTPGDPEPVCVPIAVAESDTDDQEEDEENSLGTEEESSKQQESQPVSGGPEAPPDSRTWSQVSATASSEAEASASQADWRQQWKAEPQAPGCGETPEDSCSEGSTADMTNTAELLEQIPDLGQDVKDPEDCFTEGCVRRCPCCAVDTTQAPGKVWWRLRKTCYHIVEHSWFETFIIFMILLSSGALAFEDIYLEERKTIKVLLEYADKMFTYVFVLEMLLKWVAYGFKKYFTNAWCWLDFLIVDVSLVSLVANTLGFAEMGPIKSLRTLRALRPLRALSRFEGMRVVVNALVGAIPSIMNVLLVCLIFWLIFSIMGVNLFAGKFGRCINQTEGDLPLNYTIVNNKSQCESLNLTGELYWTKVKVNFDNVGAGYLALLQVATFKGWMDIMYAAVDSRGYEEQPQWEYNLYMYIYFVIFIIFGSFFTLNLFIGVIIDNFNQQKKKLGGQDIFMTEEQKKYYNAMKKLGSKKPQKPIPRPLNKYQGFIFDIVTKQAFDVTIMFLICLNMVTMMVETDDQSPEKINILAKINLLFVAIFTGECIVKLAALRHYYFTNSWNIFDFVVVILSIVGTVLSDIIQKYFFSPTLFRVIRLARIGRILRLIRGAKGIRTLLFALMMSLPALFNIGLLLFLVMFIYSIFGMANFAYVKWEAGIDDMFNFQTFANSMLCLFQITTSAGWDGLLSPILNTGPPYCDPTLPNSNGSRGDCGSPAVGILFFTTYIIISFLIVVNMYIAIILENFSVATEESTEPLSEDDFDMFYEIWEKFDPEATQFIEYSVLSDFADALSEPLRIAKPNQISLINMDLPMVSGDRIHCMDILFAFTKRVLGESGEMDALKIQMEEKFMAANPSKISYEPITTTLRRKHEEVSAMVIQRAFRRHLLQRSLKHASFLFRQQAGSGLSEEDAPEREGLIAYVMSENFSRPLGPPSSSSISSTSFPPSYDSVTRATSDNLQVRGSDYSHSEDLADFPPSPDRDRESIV
# ASSAY_PROTOCOL: Nav 1.5 IonWorks Quattro (IWQ) in vitro assay
# Format: cell-based
# MEASUREMENT_SETUP: read-out: NAV 1.5 IWQ IC50
Give IC50 for every item shown.

Cc1cc(Cl)c(Oc2ncc(-c3cc(F)c(C(=O)NS(C)(=O)=O)cc3C)cc2Cl)cc1C [Example 632]: > 3000 nM
COc1cc(C(=O)NS(C)(=O)=O)c(F)cc1-c1cnc(Oc2cc(F)cc(F)c2F)c(Cl)c1 [Example 700]: > 3000 nM

Each of the following entries comes with a recorded value; kindly state IC50 for each.
1. Cc1ccc(Oc2ncc(-c3cc(F)c(C(=O)NS(C)(=O)=O)cc3Cl)cc2Cl)cc1F [Example 591]
2. Cc1cc(C(=O)NS(C)(=O)=O)c(F)cc1-c1cnc(Oc2cc(F)c(Br)cc2Cl)c(Cl)c1 [Example 606]
3. COc1ccccc1C[C@@H](C)Oc1ncc(-c2cc(F)c(C(=O)NS(C)(=O)=O)cc2C)cc1Cl [Example 649]
4. Cc1cc(C(=O)NS(C)(=O)=O)c(F)cc1-c1cnc(Oc2c(C)ccc3ccccc23)c(Cl)c1 [Example 608]
5. Cc1cc(Br)ccc1Oc1ncc(-c2cc(F)c(C(=O)NS(C)(=O)=O)cc2C)cc1Cl [Example 614]
6. CS(=O)(=O)NC(=O)c1cc(Cl)c(-c2cnc(Oc3cc(F)cc(F)c3Cl)c(Cl)c2)cc1F [Example 599]
7. Cc1cc(Cl)cc(Cl)c1Oc1ncc(-c2cc(F)c(C(=O)NS(C)(=O)=O)cc2F)cc1Br [Example 575]
8. COc1cc(C(=O)NS(C)(=O)=O)ccc1-c1cnc(Oc2c(C)cc(Cl)cc2Cl)c(C#N)c1 [Example 689]

1: > 3000 nM; 2: > 3000 nM; 3: > 3000 nM; 4: > 3000 nM; 5: > 3000 nM; 6: > 3000 nM; 7: > 4900 nM; 8: 1000 nM

Each of the following entries comes with a recorded value; kindly state IC50 for each.
1. Cc1cc(C(=O)NS(C)(=O)=O)c(F)cc1-c1cnc(Oc2ccc(Cl)cc2Cl)c(Cl)c1 [Example 665]
2. Cc1cc(Cl)cc(Cl)c1Oc1ncc(-c2ccc(C(=O)NS(C)(=O)=O)cc2OC(F)F)cc1Cl [Example 585]
3. Cc1cc(C(=O)NS(C)(=O)=O)c(F)cc1-c1cnc(O[C@H](C)c2cc(F)c(F)cc2F)c(Cl)c1 [Example 660]
4. COc1cc(C(=O)NS(C)(=O)=O)c(F)cc1-c1cnc(Oc2cc(Cl)cc(Cl)c2)c(Cl)c1 [Example 695]

["4680 nM", "289 nM", "6440 nM", "> 3000 nM"]

Each of the following entries comes with a recorded value; kindly state IC50 for each.
1. CS(=O)(=O)NC(=O)c1cc(Cl)c(-c2cnc(Oc3cc(F)cc(F)c3F)c(Cl)c2)cc1F [Example 589]
2. COc1cc(C(=O)NS(C)(=O)=O)ccc1-c1cnc(OCc2ccccc2Cl)c(Cl)c1 [Example 577]
3. COc1cc(C(=O)NS(C)(=O)=O)c(F)cc1-c1cnc(Oc2ccc(F)c(F)c2F)c(Cl)c1 [Example 701]
4. Cc1cc(C(=O)NS(C)(=O)=O)c(F)cc1-c1cnc(Oc2c(Cl)cc(F)cc2Cl)c(Cl)c1 [Example 644]
5. Cc1cc(C(=O)NS(C)(=O)=O)c(F)cc1-c1cnc(O[C@H](C)c2ccc(F)cc2Cl)c(Cl)c1 [Example 652]
6. Cc1cc(C(=O)NS(C)(=O)=O)c(F)cc1-c1cnc(Oc2c(Cl)cccc2Cl)c(Cl)c1 [Example 627]

1. > 3000 nM
2. > 3000 nM
3. > 3000 nM
4. > 3000 nM
5. > 3000 nM
6. > 3000 nM

Each of the following entries comes with a recorded value; kindly state IC50 for each.
1. Cc1cc(C(=O)NS(C)(=O)=O)c(F)cc1-c1cnc(O[C@H](C)CCc2ccccc2)c(Cl)c1 [Example 638]
2. Cc1ccc(Oc2ncc(-c3cc(F)c(C(=O)NS(C)(=O)=O)cc3C)cc2Cl)c(C(C)(C)C)c1 [Example 634]
3. CS(=O)(=O)NC(=O)c1cc(Cl)c(-c2cnc(Oc3cc(F)ccc3Cl)c(Cl)c2)cc1F [Example 595]
4. C[C@@](Oc1ncc(-c2cc(F)c(C(=O)NS(C)(=O)=O)cc2F)cc1Cl)(c1ccccc1)C(F)(F)F [Example 566]

["> 3000 nM", "> 3000 nM", "> 3000 nM", "> 3000 nM"]

Each of the following entries comes with a recorded value; kindly state IC50 for each.
1. Cc1cc(C(=O)NS(C)(=O)=O)c(F)cc1-c1cnc(N2CCC[C@H]2c2ccccc2)c(Cl)c1 [Example 646]
2. Cc1ccc([C@H]2CCCN2c2ncc(-c3cc(F)c(C(=O)NS(C)(=O)=O)cc3C)cc2Cl)cc1 [Example 657]
3. Cc1cc(C(=O)NS(C)(=O)=O)c(F)cc1-c1cnc(Oc2cccc(Br)c2)c(Cl)c1 [Example 607]
4. Cc1cc(C(=O)NS(C)(=O)=O)c(F)cc1-c1cnc(Oc2cc(F)ccc2F)c(Cl)c1 [Example 605]
5. Cc1cc(C(=O)NS(C)(=O)=O)c(F)cc1-c1cnc(Oc2ccc(Cl)c(Cl)c2)c(Cl)c1 [Example 664]
6. Cc1cc(C(=O)NS(C)(=O)=O)c(F)cc1-c1cnc(Oc2c(C)cc(Cl)cc2C)c(Cl)c1 [Example 669]

["> 3000 nM", "> 3000 nM", "> 3000 nM", "> 3000 nM", "> 10000 nM", "3610 nM"]

----------
# ASSAYED_TARGET: human Nav1.7 (Homo sapiens (Human), UniProt Q15858)
# Sequence (Q15858 whole entry): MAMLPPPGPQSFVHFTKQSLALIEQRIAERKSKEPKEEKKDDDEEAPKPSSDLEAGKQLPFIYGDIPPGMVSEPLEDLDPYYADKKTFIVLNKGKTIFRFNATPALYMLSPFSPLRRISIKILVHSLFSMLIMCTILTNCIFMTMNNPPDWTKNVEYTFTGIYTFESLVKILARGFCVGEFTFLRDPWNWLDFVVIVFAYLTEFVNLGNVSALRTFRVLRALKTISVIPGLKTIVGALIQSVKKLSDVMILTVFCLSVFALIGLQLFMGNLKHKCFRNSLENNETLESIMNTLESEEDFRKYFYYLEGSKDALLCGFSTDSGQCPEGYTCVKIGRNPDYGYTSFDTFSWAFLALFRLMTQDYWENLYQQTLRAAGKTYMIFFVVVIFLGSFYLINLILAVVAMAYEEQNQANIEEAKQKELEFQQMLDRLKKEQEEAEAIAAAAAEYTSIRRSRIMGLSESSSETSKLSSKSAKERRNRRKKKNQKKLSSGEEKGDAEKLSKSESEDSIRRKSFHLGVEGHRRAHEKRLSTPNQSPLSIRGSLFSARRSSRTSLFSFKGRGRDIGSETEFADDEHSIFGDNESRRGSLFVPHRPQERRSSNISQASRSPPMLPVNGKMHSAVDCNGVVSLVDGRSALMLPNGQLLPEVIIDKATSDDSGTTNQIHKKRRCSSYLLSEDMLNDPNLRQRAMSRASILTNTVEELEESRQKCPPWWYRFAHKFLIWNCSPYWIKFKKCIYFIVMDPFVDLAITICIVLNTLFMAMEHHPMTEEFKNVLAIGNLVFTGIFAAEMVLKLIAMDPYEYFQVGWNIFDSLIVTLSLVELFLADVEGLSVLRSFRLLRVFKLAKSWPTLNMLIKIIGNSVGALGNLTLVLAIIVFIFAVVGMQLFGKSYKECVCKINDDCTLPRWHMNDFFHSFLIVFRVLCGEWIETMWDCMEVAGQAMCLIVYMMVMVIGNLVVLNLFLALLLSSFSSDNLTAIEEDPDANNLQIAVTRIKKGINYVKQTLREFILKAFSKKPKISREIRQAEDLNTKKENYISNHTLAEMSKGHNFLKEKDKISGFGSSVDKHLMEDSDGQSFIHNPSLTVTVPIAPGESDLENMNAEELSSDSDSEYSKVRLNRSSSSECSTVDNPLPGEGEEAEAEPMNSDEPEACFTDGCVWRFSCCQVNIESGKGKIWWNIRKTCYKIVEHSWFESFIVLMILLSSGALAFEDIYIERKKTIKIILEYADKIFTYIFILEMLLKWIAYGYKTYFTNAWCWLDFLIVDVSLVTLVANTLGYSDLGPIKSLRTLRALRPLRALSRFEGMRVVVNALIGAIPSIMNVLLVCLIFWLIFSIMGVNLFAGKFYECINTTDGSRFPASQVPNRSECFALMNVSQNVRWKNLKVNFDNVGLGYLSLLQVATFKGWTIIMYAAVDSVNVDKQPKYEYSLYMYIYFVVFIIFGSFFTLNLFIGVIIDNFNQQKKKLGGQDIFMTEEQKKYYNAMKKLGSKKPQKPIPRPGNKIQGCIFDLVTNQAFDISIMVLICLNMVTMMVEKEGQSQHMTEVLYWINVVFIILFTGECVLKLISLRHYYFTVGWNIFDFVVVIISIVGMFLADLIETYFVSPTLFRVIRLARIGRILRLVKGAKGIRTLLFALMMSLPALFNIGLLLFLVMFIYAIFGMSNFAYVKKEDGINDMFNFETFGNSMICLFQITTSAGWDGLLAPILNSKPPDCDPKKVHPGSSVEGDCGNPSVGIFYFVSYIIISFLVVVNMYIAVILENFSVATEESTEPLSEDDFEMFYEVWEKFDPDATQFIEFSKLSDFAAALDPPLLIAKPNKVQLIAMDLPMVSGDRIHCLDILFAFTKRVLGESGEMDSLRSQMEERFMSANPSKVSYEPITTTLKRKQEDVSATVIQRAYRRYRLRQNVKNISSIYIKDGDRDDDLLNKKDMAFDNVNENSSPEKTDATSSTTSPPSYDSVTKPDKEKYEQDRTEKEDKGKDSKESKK
# ASSAY_PROTOCOL: Nav 1.7 in vitro PatchXpress (PX) assay
# Format: cell-based
Simple rule here: IC50 less than 0.08 µM is Yes, otherwise No.

Some entries whose results are on file:
Cc1cccc(Cl)c1Oc1ncc(-c2ccc(C(=O)NS(C)(=O)=O)cc2OC2COC2)cc1Cl: Yes
Cc1ccc([C@H]2CCCN2c2ncc(-c3cc(F)c(C(=O)NS(C)(=O)=O)cc3C)cc2Cl)cc1: No
Cc1cc(Br)ccc1Oc1ncc(-c2cc(F)c(C(=O)NS(C)(=O)=O)cc2C)cc1Cl: Yes
Cc1cc(C(=O)NS(C)(=O)=O)c(F)cc1-c1cnc(O[C@H](C)c2c(F)cc(F)cc2F)c(Cl)c1: Yes
Cc1cc(C(=O)NS(C)(=O)=O)c(F)cc1-c1cnc(Oc2cc(F)cc(F)c2F)c(Cl)c1: Yes
Cc1cc(C(=O)NS(C)(=O)=O)c(F)cc1-c1cnc(Oc2c(Cl)ccc(C)c2F)c(Cl)c1: No
CC[C@@H](Oc1ncc(-c2cc(F)c(C(=O)NS(C)(=O)=O)cc2C)cc1Cl)c1ccc(Cl)cc1: No
C[C@@](Oc1ncc(-c2cc(F)c(C(=O)NS(C)(=O)=O)cc2F)cc1Cl)(c1ccccc1)C(F)(F)F: Yes

Answer whether the compound Cc1cc(C(=O)NS(C)(=O)=O)c(F)cc1-c1cnc(Oc2c(C)cccc2C(C)(C)C)c(Cl)c1 has IC50 strictly less than 0.08 µM
No

Answer whether the compound COc1cc(C(=O)NS(C)(=O)=O)c(F)cc1-c1cnc(Oc2ccc(C)c(F)c2)c(Cl)c1 has IC50 strictly less than 0.08 µM
Yes

Answer whether the compound CS(=O)(=O)NC(=O)c1cc(F)c(-c2cnc(Oc3c(Cl)cc(Cl)cc3Cl)c(Cl)c2)cc1F has IC50 strictly less than 0.08 µM
Yes

Answer whether the compound Cc1cc(C(=O)NS(C)(=O)=O)c(F)cc1-c1cnc(OCc2cccc3ncccc23)c(Cl)c1 has IC50 strictly less than 0.08 µM
No

Answer whether the compound Cc1cc(C(=O)NS(C)(=O)=O)c(F)cc1-c1cnc(N2CCC[C@@H]2c2cccc(Cl)c2)c(Cl)c1 has IC50 strictly less than 0.08 µM
Yes

Answer whether the compound COc1ccc(Oc2ncc(-c3ccc(C(=O)NS(C)(=O)=O)cc3OC)cc2Cl)c(Cl)c1 has IC50 strictly less than 0.08 µM
No

Answer whether the compound Cc1cc(C(=O)NS(C)(=O)=O)c(F)cc1-c1cnc(O[C@H](C)c2cc(F)c(F)cc2F)c(Cl)c1 has IC50 strictly less than 0.08 µM
No

Answer whether the compound CC[C@@H](Oc1ncc(-c2cc(F)c(C(=O)NS(C)(=O)=O)cc2C)cc1Cl)c1ccc(C)cc1 has IC50 strictly less than 0.08 µM
No

Answer whether the compound CS(=O)(=O)NC(=O)c1cc(Cl)c(-c2cnc(Oc3cc(F)ccc3F)c(Cl)c2)cc1F has IC50 strictly less than 0.08 µM
Yes

Answer whether the compound Cc1cc(C(=O)NS(C)(=O)=O)c(F)cc1-c1cnc(Oc2c(F)ccc(Cl)c2F)c(Cl)c1 has IC50 strictly less than 0.08 µM
No

Answer whether the compound COc1cc(C(=O)NS(C)(=O)=O)c(F)cc1-c1cnc(O[C@H](C)c2ccccc2)c(Cl)c1 has IC50 strictly less than 0.08 µM
No

Answer whether the compound COc1cc(C(=O)NS(C)(=O)=O)ccc1-c1cnc(Oc2c(C)cc(Cl)cc2Cl)c(Cl)c1 has IC50 strictly less than 0.08 µM
Yes

Answer whether the compound Cc1cc(C(=O)NS(C)(=O)=O)c(F)cc1-c1cnc(OCCC2CC2)c(Cl)c1 has IC50 strictly less than 0.08 µM
No

Answer whether the compound Cc1cc(C(=O)NS(C)(=O)=O)c(F)cc1-c1cnc(Oc2cccc(Br)c2)c(Cl)c1 has IC50 strictly less than 0.08 µM
Yes

Answer whether the compound Cc1cc(Cl)cc(Cl)c1Oc1ncc(-c2ccc(C(=O)NS(C)(=O)=O)cc2OC2COC2)cc1Cl has IC50 strictly less than 0.08 µM
Yes
